The measurements presented in this section are drawn from ChEMBL document CHEMBL1144401.

test.target: Cholecystokinin receptor type A (Homo sapiens, UniProt P32238, R197M)
assay.text: Inhibition of CCK-Induced inositol phosphate in Cos-7 cells expressing mutant CCK1R (R197M)
pIC50: −log10 of the molar value.
assay.endpoint: pIC50

(P) CC(C)(C)OC(=O)N[C@@H](Cc1c[nH]c2ccccc12)C(=O)N[C@@H]1CCCN2C(=O)N(c3cccc4ccccc34)C(=O)C[C@@H]12
(Q) CC(C)(C)OC(=O)N[C@@H](Cc1c[nH]c2ccccc12)C(=O)N[C@@H]1CCCN2C(=O)N(c3ccccc3)C(=O)C[C@@H]12
Kindly identify the item with the lower pIC50 figure among these two: P and Q // respond with label for picked entry
Q
(Q: 7.64, P: 8.05)

###

test.target: UniProtKB P32238
assay.text: Inhibition of CCK-Induced inositol phosphate production in Cos-7 cells expressing human CCK1R
Format: functional, cell-based
pIC50: −log10 of the molar value.
assay.endpoint: pIC50

Example results:
[
  {
    "compound": "CC(C)(C)OC(=O)N[C@@H](Cc1c[nH]c2ccccc12)C(=O)N[C@@H]1CCCN2C(=O)N(c3ccccc3)C(=O)C[C@@H]12",
    "assay.endpoint": "pIC50",
    "measured.result": 7.45
  },
  {
    "compound": "CC(C)(C)OC(=O)N[C@@H](Cc1c[nH]c2ccccc12)C(=O)N[C@@H]1CCCN2C(S)N(Cc3ccccc3)C(=O)C[C@@H]12 (some centres undefined)",
    "assay.endpoint": "pIC50",
    "measured.result": 8.14
  }
]

(I) CC(C)(C)OC(=O)N[C@@H](Cc1c[nH]c2ccccc12)C(=O)N[C@@H]1CCCN2C(=O)N(c3cccc4ccccc34)C(=O)C[C@@H]12
(II) CC(C)(C)OC(=O)N[C@@H](Cc1c[nH]c2ccccc12)C(=O)N[C@H]1CCCN2C(=O)N(Cc3ccccc3)C(=O)C[C@@H]12
Could you determine which record has the numerically smaller pIC50? Candidates: I and II Select an item and report its label.
II

###

test.target: Cholecystokinin receptor type A (Homo sapiens, UniProt P32238, T117A)
assay.text: Inhibition of CCK-Induced inositol phosphate in Cos-7 cells expressing mutant CCK1R (T117A)
pIC50: −log10 of the molar value.
assay.endpoint: pIC50

[
  {
    "molecule": "CC(C)(C)OC(=O)N[C@@H](Cc1c[nH]c2ccccc12)C(=O)N[C@@H]1CCCN2C(S)N(Cc3ccccc3)C(=O)C[C@@H]12 (stereo partly drawn)",
    "measured.result": 7.55
  }
]

(1) CC(C)(C)OC(=O)N[C@@H](Cc1c[nH]c2ccccc12)C(=O)N[C@@H]1CCCN2C(=O)N(c3cccc4ccccc34)C(=O)C[C@@H]12
(2) CC(C)(C)OC(=O)N[C@@H](Cc1c[nH]c2ccccc12)C(=O)N[C@@H]1CCCN2C(=O)N(c3ccccc3)C(=O)C[C@@H]12
Please let me know which one, 1 or 2 , has a lower measured pIC50 value. Let me know the label of the one you choose.
2

###

test.target: Cholecystokinin receptor type A (Homo sapiens, UniProt P32238, S342A)
assay.text: Inhibition of CCK-Induced inositol phosphate in Cos-7 cells expressing mutant CCK1R (S342A)
pIC50: −log10 of the molar value.
assay.endpoint: pIC50

[
  {
    "compound": "CC(C)(C)OC(=O)N[C@@H](Cc1c[nH]c2ccccc12)C(=O)N[C@@H]1CCCN2C(S)N(Cc3ccccc3)C(=O)C[C@@H]12 (stereo partly drawn)",
    "test.target": "Cholecystokinin receptor type A (Homo sapiens, UniProt P32238, S342A)",
    "measured.result": 7.56
  }
]

(a) CC(C)(C)OC(=O)N[C@@H](Cc1c[nH]c2ccccc12)C(=O)N[C@@H]1CCCN2C(=O)N(c3cccc4ccccc34)C(=O)C[C@@H]12
(b) CC(C)(C)OC(=O)N[C@@H](Cc1c[nH]c2ccccc12)C(=O)N[C@@H]1CCCN2C(=O)N(c3ccccc3)C(=O)C[C@@H]12
Which value of pIC50 is greater, the one for a or the one for b ? API: response body contains the label of the selected item.
a

###

test.target: Cholecystokinin receptor type A (Homo sapiens, UniProt P32238, F107A)
assay.text: Inhibition of CCK-induced inositol phosphate in Cos-7 cells expressing mutant CCK1R (F107A)
assay.endpoint: IC50 (nM)

[
  {
    "compound": "CC(C)(C)OC(=O)N[C@@H](Cc1c[nH]c2ccccc12)C(=O)N[C@@H]1CCCN2C(S)N(Cc3ccccc3)C(=O)C[C@@H]12 (stereo partly drawn)",
    "test.target": "Cholecystokinin receptor type A (Homo sapiens, UniProt P32238, F107A)",
    "assay.endpoint": "IC50",
    "unit.abbrev": "nM",
    "measured.result": 31.5
  },
  {
    "compound": "CC(C)(C)OC(=O)N[C@@H](Cc1c[nH]c2ccccc12)C(=O)N[C@@H]1CCCN2C(=O)N(c3ccccc3)C(=O)C[C@@H]12",
    "test.target": "Cholecystokinin receptor type A (Homo sapiens, UniProt P32238, F107A)",
    "assay.endpoint": "IC50",
    "unit.abbrev": "nM",
    "measured.result": 23.3
  },
  {
    "compound": "CC(C)(C)OC(=O)N[C@@H](Cc1c[nH]c2ccccc12)C(=O)N[C@@H]1CCCN2C(=O)N(c3cccc4ccccc34)C(=O)C[C@@H]12",
    "test.target": "Cholecystokinin receptor type A (Homo sapiens, UniProt P32238, F107A)",
    "assay.endpoint": "IC50",
    "unit.abbrev": "nM",
    "measured.result": 26.8
  }
]

###

test.target: Cholecystokinin receptor type A (Homo sapiens, UniProt P32238, M195L)
assay.text: Inhibition of CCK-Induced inositol phosphate in Cos-7 cells expressing mutant CCK1R (M195L)
assay.endpoint: IC50 (nM)

(a) CC(C)(C)OC(=O)N[C@@H](Cc1c[nH]c2ccccc12)C(=O)N[C@@H]1CCCN2C(=O)N(c3cccc4ccccc34)C(=O)C[C@@H]12
(b) CC(C)(C)OC(=O)N[C@@H](Cc1c[nH]c2ccccc12)C(=O)N[C@@H]1CCCN2C(=O)N(c3ccccc3)C(=O)C[C@@H]12
Just curious, which one has the larger IC50 reading, a or b ? Return value: the label identifying the chosen record.
b

###

test.target: Cholecystokinin receptor type A (Rattus norvegicus)
Sequence (P30551 whole entry): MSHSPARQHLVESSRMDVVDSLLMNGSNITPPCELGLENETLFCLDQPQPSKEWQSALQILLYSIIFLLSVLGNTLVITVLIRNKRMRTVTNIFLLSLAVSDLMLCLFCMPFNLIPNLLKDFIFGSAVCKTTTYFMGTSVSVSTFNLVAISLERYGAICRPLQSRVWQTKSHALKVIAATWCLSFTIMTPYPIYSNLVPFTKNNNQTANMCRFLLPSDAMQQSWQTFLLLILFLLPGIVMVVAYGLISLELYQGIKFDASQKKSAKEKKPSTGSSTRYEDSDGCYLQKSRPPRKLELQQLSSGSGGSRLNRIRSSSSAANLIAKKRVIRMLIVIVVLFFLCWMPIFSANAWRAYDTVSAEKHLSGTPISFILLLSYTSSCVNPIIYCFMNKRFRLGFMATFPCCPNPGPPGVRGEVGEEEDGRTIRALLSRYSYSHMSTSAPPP
assay.endpoint: pIC50
The quantity pIC50 is defined as the negative base-10 logarithm of the molar concentration.

Fill blank: measured pIC50 of the compound `CC(C)(C)OC(=O)N[C@@H](Cc1c[nH]c2ccccc12)C(=O)N[C@@H]1CCCN2C(=O)N(c3cccc4ccccc34)C(=O)C[C@@H]12` is ____.
9.23

###

test.target: Cholecystokinin receptor type A (Homo sapiens, UniProt P32238, I329F)
assay.text: Inhibition of CCK-Induced inositol phosphate in Cos-7 cells expressing mutant CCK1R (I329F)
assay.endpoint: IC50 (nM)

[
  {
    "molecule": "CC(C)(C)OC(=O)N[C@@H](Cc1c[nH]c2ccccc12)C(=O)N[C@@H]1CCCN2C(=O)N(c3cccc4ccccc34)C(=O)C[C@@H]12",
    "unit.abbrev": "nM",
    "IC50": 801
  }
]

(A) CC(C)(C)OC(=O)N[C@@H](Cc1c[nH]c2ccccc12)C(=O)N[C@@H]1CCCN2C(S)N(Cc3ccccc3)C(=O)C[C@@H]12 (stereo partly drawn)
(B) CC(C)(C)OC(=O)N[C@@H](Cc1c[nH]c2ccccc12)C(=O)N[C@@H]1CCCN2C(=O)N(c3ccccc3)C(=O)C[C@@H]12
Which of the two items, A and B , has the greater recorded IC50? Kindly give the label for the entry you pick.
B
(B: 514 nM, A: 183 nM)

###

test.target: Cholecystokinin receptor type A (Homo sapiens, UniProt P32238)
Sequence (P32238 whole entry): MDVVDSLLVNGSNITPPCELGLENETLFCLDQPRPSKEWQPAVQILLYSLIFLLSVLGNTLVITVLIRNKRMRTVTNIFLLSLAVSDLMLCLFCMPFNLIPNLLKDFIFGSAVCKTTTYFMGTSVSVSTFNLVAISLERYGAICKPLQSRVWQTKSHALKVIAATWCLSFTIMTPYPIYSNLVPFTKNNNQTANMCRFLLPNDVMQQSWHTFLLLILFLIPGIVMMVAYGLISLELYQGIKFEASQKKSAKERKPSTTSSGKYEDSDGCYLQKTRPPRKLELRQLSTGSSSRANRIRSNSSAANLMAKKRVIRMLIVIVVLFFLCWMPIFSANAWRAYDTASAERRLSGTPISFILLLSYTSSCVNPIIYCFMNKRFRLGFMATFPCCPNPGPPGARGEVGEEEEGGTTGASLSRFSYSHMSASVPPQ
assay.text: Inhibition of CCK binding to Cos-7 cells expressing human cholecystokinin 1 receptor
Type: cell-based
pIC50: −log10 of the molar value.
assay.endpoint: pIC50

[
  {
    "compound": "CC(C)(C)OC(=O)N[C@@H](Cc1c[nH]c2ccccc12)C(=O)N[C@@H]1CCCN2C(=O)N(c3ccccc3)C(=O)C[C@@H]12",
    "pIC50": 8.28
  }
]

(A) CC(C)(C)OC(=O)N[C@@H](Cc1c[nH]c2ccccc12)C(=O)N[C@H]1CCCN2C(=O)N(Cc3ccccc3)C(=O)C[C@@H]12
(B) CC(C)(C)OC(=O)N[C@@H](Cc1c[nH]c2ccccc12)C(=O)N[C@@H]1CCCN2C(=O)N(c3cccc4ccccc34)C(=O)C[C@@H]12
(C) CC(C)(C)OC(=O)N[C@@H](Cc1c[nH]c2ccccc12)C(=O)N[C@@H]1CCCN2C(S)N(Cc3ccccc3)C(=O)C[C@@H]12 (some centres undefined)
Parameters: sort_field (pIC50), sort_dir (desc). Your task in answering is to list the labels in the requested order.
B, C, A
